Cited source for all entries: patent US12421253B2

Target: KRas^G12R (Homo sapiens, UniProt P01116, G12R)
Construct: […]; biotin (biotinylated)
Sequence (P01116 1-169 isoform P01116-2 G12R): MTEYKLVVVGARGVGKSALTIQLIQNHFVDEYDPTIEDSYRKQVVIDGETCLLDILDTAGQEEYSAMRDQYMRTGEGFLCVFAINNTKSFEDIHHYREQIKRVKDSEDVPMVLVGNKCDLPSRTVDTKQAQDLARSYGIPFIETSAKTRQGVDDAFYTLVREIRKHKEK
Assay: KRas binding assay (TR-FRET displacement of Cy5 labelled tracer)
Readout Type: IC50 (µM)

A: CCc1cccc2cccc(N3CCc4c(nc(OCC56CCCN5CCC6)nc4N4CCCN(C(=O)c5ccco5)CC4)C3)c12
B: CCc1cccc2cccc(N3CCc4c(nc(OCC56CCCN5CCC6)nc4N4CC5CNC(=O)C5C4)C3)c12 (stereo not shown)
query: Select one. Lower IC50: A or B Answer = label.
result: B
(B: 0.723 µM, A: 3.08 µM)

1: CCc1cccc2cccc(N3CCc4c(nc(OCC56CCCN5CCC6)nc4N4CCC(OCC(N)=O)CC4)C3)c12
2: CCc1cccc2cccc(N3CCc4c(nc(OCC56CCCN5CCC6)nc4NC4CN(c5ccccn5)C4)C3)c12
query: For the pair 1 and 2 , which entry has the numerically smaller recorded IC50? # respond with the chosen item's label
result: 1
(1: 0.219 µM, 2: 1.56 µM)
